measured.target: Polyunsaturated fatty acid lipoxygenase ALOX12 (Homo sapiens)
protocol.details: Inhibitors of 12-hLO (12-human lipoxygenase): Cuvette-Based Hit Assay for Validation of Followup Compounds
measurement.conditions: purified 12-hLO, cuvette absorbance 234 nm
Active and inactive are the calls of the source. Calls follow the shape of the full dose curve.
Record form. Attribute: Potency. Fill in for each entry.

Name the recorded Potency of the item COc1cc(CNc2ccc(O)cc2)cc(Br)c1OCc1ccccc1F in your answer.
24.1 µM (active)

Name the recorded Potency of the item O=C(CSc1n[nH]c(-c2ccccc2)n1)c1ccc(O)c(O)c1 in your answer.
24.2 µM (active)

Name the recorded Potency of the item O=C(Nc1nnc(C2=COCCO2)o1)c1ccc(Cl)cc1 in your answer.
7.14 µM (active)

Name the recorded Potency of the item Oc1ccc(Cl)cc1-c1cc(-c2ccco2)[nH]n1 in your answer.
21.5 µM (active)

Name the recorded Potency of the item CCc1cc(-c2n[nH]c(C)c2Oc2ccc(C(C)C)cc2)c(O)cc1O in your answer.
20.2 µM (active)

Name the recorded Potency of the item COc1ccc(/C=C/c2nc(-c3ccccc3O)n[nH]2)cc1 in your answer.
18.9 µM (active)

Name the recorded Potency of the item c1ccc(-c2nc(NCc3cccnc3)c3oc4ccccc4c3n2)cc1 in your answer.
14 µM (active)

Name the recorded Potency of the item Cc1ccc(C(=O)/C=C/c2c[nH]c3ccccc23)cc1 in your answer.
34.6 µM (active)

Name the recorded Potency of the item CCCOC(=O)c1ccc(Oc2cn[nH]c2-c2ccc(OC)cc2O)cc1 in your answer.
26.8 µM (active)

Name the recorded Potency of the item CC1=NN(c2ccc(Cl)cc2)C(=O)C1C(c1cccc(O)c1)c1c(C)[nH]n(-c2ccc(Cl)cc2)c1=O (stereo unspecified) in your answer.
7.55 µM (active)

Name the recorded Potency of the item COc1cccc(-c2cnc(NCc3cc(Cl)ccc3O)n2C)c1 in your answer.
32.7 µM (active)
